Data provenance: PubChem BioAssay (NCATS)

- system_tested: Guanine nucleotide-binding protein G(i) subunit alpha-1 (Homo sapiens) (UniProt P63096)
- Sequence (P63096 whole entry, looked up): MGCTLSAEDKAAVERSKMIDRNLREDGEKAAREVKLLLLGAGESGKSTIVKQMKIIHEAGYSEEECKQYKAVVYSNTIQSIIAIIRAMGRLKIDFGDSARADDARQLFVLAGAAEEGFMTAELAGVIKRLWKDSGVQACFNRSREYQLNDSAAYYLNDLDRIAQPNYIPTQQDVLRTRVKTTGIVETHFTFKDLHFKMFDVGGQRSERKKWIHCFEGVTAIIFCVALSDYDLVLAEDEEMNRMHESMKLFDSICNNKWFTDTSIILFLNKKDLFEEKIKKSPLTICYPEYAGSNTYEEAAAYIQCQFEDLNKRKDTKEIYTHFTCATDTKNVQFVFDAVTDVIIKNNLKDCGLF
- assay_details: qHTS Assay for Inhibitors of RGS12 GoLoco Motif Activity (Green Fluorophore) (AID 879);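 note: negative values mean loss of peptide binding seen as reduced polarization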
- cond: Galphai1/FITC-RGS12 GoLoco peptide, fluorescence polarization; series mostly up to 57.1 µM
Active and inactive are the calls of the source. Calls come from the whole dose curve; as a rule, active = well fitted curve in the direction sought with a large enough effect; inconclusive = small, poorly fitted or top-dose-only effect, or another doubt; inactive = no such curve, though single readings can be large or run the other way.
readout_label: outcome

{"columns": ["chemical_smiles", "readout_label", "reported_result"],
 "data": [
  ["C[N+](C)(C)CC(=O)O", "outcome", "inactive"],
  ["NC(N)=Nc1nc(CSCC/C(N)=N/S(N)(=O)=O)cs1", "outcome", "inactive"],
  ["CC1(C)CCC2=C(O1)c1ccccc1C(=O)C2=O", "outcome", "inactive"],
  ["O=C1NCC2(CCN(CCc3ccccc3)CC2)O1", "outcome", "inactive"]
]}

Item: C[N+](C)(C)CCCCCC[N+](C)(C)C | outcome: inactive

Item: O=c1c(-c2ccc(O)cc2)coc2cc(O)ccc12 | outcome: inactive

Item: CCCNC(=O)NS(=O)(=O)c1ccc(Cl)cc1 | outcome: inactive
